molecular target: truncated form of human NaV 1.8 with full channel activity (Homo sapiens, UniProt Q9Y5Y9); assay: E-VIPR Assay Method A for detecting and measuring Nav inhibition (HEK cells, membrane potential FRET dyes, electrical stimulation); type: cell-based; details: HEK cells expressing human NaV 1.8, HS (human serum) in compound loading buffer, 11 point dose response, top dose 3 μM, Table 20A, read-out: Nav 1.8 MedChem Optical Assay EVIPR Assay Method A HS IC50
Sequence (Q9Y5Y9 126-1722 limits assumed): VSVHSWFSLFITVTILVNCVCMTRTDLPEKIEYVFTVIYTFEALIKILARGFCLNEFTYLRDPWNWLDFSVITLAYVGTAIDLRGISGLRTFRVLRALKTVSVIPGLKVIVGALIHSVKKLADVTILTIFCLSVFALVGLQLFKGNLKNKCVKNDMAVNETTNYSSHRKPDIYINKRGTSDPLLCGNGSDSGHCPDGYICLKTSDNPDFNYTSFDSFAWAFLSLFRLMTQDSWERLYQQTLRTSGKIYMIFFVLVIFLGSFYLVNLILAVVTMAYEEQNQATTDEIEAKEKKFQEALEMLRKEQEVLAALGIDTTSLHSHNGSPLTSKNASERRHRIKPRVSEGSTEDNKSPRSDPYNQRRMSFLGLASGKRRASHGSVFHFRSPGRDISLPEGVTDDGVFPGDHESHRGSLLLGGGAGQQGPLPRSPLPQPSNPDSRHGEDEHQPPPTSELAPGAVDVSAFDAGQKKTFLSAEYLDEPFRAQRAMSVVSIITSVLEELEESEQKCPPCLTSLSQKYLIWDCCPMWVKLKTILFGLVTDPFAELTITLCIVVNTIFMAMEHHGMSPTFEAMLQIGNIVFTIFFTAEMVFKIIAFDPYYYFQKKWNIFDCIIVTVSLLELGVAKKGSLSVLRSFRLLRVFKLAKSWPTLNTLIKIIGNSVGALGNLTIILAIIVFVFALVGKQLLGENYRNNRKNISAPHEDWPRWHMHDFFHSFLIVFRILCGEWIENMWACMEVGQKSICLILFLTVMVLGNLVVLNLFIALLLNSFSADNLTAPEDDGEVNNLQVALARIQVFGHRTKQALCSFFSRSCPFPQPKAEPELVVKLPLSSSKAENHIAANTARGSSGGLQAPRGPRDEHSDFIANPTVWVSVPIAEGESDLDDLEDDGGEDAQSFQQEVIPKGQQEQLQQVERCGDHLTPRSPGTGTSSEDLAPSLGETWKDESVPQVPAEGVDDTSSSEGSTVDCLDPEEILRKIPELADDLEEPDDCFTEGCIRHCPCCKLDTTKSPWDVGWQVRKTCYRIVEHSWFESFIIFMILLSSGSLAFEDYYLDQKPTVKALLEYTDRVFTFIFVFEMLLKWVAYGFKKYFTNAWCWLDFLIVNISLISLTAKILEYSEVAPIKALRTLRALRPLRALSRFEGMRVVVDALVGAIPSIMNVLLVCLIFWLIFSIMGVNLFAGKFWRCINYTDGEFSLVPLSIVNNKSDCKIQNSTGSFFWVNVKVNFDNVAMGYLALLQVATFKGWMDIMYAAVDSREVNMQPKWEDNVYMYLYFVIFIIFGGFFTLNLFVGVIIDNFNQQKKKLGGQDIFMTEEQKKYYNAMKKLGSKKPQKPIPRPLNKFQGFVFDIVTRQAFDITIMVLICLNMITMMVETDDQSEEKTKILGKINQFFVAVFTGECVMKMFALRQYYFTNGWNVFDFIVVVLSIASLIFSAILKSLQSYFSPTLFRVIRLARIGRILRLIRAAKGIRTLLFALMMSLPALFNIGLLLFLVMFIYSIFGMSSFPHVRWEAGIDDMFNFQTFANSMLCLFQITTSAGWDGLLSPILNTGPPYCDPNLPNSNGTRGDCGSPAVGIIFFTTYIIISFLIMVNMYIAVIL
recorded_metric: IC50 (nM)

Solved entries (count: 7):
>>> df
                               query_smiles  unit_text  result_value
0  NC(=O)c1cc(NC(=O)c2c(Oc3ccc(OC(F)(F)F)cc3)ccc(C3CC3)c2F)ccn1         nM           175
1  Cc1cnc(C(N)=O)cc1NC(=O)c1c(Oc2ccc(OC(F)(F)F)cc2)ccc(C(F)(F)F)c1F         nM            44
2  NC(=O)c1cc(NC(=O)c2c(Oc3ccc(OC(F)(F)F)c(F)c3)ccc(OC(F)(F)F)c2F)ccn1         nM            38
3  Cc1cc(F)c(C(N)=O)cc1NC(=O)c1c(Oc2ccc(OC(F)(F)F)cc2)ccc(C(F)(F)F)c1F         nM           220
4  NC(=O)c1ccc(NC(=O)c2c(Oc3ccc(OC(F)(F)F)cc3)ccc(C(F)(F)F)c2F)cc1F         nM            79
5  COc1cc(F)ccc1-c1cc(C(C)(C)C)ncc1C(=O)Nc1ccc(F)c(C(N)=O)c1         nM           170
6  COc1ccc(Oc2ccc(C(F)(F)F)c(F)c2C(=O)Nc2ccc(F)c(C(N)=O)c2)cn1         nM           260

P = COc1cc(OC(F)(F)F)ccc1Oc1cncc(F)c1C(=O)Nc1ccnc(C(N)=O)c1
Q = [2H]C([2H])([2H])Oc1c(Oc2ccc(C(F)F)c(F)c2C(=O)Nc2ccc(C(N)=O)nc2)ccc(OC(F)(F)F)c1F
## Task I'd appreciate it if you could identify which of P and Q has the greater IC50. Your answer should be the label attached to the chosen record.
## Result P

* * *

molecular target: truncated form of human NaV 1.8 with full channel activity (Homo sapiens); assay: E-VIPR Assay Method A for detecting and measuring Nav inhibition (HEK cells, membrane potential FRET dyes, electrical stimulation); type: cell-based; settings: HEK cells expressing human NaV 1.8, HS (human serum) in compound loading buffer, 11 point dose response, top dose 3 μM, Table 20A, read-out: Nav 1.8 MedChem Optical Assay EVIPR Assay Method A HS IC50
recorded_metric: IC50 (nM)

In [3]: df
Out[3]:
                                   molecule  result_value
0  COc1cc(OC(F)(F)F)ccc1Oc1cc(C2CC2(F)F)ncc1C(=O)Nc1ccnc(C(N)=O)c1 (centres unmarked)           123
1  COc1cc(OC(F)(F)F)ccc1Oc1cc(C(F)(F)F)ncc1C(=O)Nc1cccc(C(N)=O)c1           112
2  NC(=O)c1cc(NC(=O)c2cc(C(F)(F)C(F)(F)F)ccc2Oc2ccc(OC(F)(F)F)cc2)ccc1F            69
3  NC(=O)c1cc(NC(=O)c2c(Oc3ccc(OC(F)(F)F)cc3O)ccc(C(F)(F)F)c2F)ccc1F           310
4  NC(=O)c1ccc(NC(=O)c2c(Oc3ccc(OC(F)(F)F)cc3)ccc(C(F)(F)F)c2F)cc1            54
5  COc1cc(OC(F)(F)F)ccc1Oc1ccc(C(F)(F)F)c(F)c1C(=O)Nc1cc(C)nc(C(N)=O)c1            32

a = COc1cc(OC(F)(F)F)ccc1Oc1ccc(C(F)(F)F)c(F)c1C(=O)Nc1ccc(F)c(C(=O)N(C)C)c1
b = COc1cc(OC(F)(F)F)ccc1Oc1cc(C(F)(F)F)ncc1C(=O)Nc1cc(C)nc(C(N)=O)c1
## Task Which numeric IC50 is bigger, that of a or that of b ? Indicate your choice by writing its label.
## Result b

* * *

target: truncated form of human NaV 1.8 with full channel activity (Homo sapiens); assay: E-VIPR Assay Method A for detecting and measuring Nav inhibition (HEK cells, membrane potential FRET dyes, electrical stimulation); format: cell-based; conditions: HEK cells expressing human NaV 1.8, HS (human serum) in compound loading buffer, 11 point dose response, top dose 3 μM, Table 20A, read-out: Nav 1.8 MedChem Optical Assay EVIPR Assay Method A HS IC50
recorded_metric: IC50 (nM)

>>> df
                               query_smiles                              study_target  unit_text  result_value
0  COc1cc(OC(F)(F)F)ccc1Oc1cc(C(C)(C)C)ncc1C(=O)Nc1ccnc(C(N)=O)c1  truncated form of human NaV 1.8 with full channel activity (Homo sapiens)         nM            63

P = [2H]C([2H])([2H])Oc1cc(OC(F)(F)F)ccc1Oc1cc(C2CC2)ncc1C(=O)Nc1ccc(F)c(C(N)=O)c1
Q = COc1cc(OC(F)(F)F)ccc1Oc1cncc(F)c1C(=O)Nc1cc(C(N)=O)ncc1C
R = N#Cc1cc(F)ccc1Oc1ccc(C(F)(F)F)c(F)c1C(=O)Nc1ccc(F)c(C(N)=O)c1
## Task Please give the order of these compounds when sorted by IC50, largest value leading. Answer by writing out the labels in the requested order.
## Result Q, R, P

* * *

target: truncated form of human NaV 1.8 with full channel activity (Homo sapiens, UniProt Q9Y5Y9); assay: E-VIPR Assay Method A for detecting and measuring Nav inhibition (HEK cells, membrane potential FRET dyes, electrical stimulation); format: cell-based; conditions: HEK cells expressing human NaV 1.8, HS (human serum) in compound loading buffer, 11 point dose response, top dose 3 μM, Table 20A, read-out: Nav 1.8 MedChem Optical Assay EVIPR Assay Method A HS IC50
recorded_metric: IC50 (nM)

Recorded IC50, per entry:
                               query_smiles  recorded_metric  result_value
0  COc1cc(OC(F)(F)F)ccc1Oc1ccc(C(F)(F)F)c(OC)c1C(=O)Nc1ccc(C(N)=O)nc1             IC50            40
1  COc1cc(OC(F)(F)F)ccc1Oc1cc(C(F)(F)F)cc(F)c1C(=O)Nc1ccc(F)c(C(N)=O)c1             IC50             5
2  COc1cc(OC(F)(F)F)ccc1Oc1cncc(OC)c1C(=O)Nc1ccc(F)c(C(N)=O)c1             IC50          1400

I = [2H]C([2H])([2H])Oc1cc(OC(F)(F)F)ccc1Oc1ccc(OC(F)F)c(F)c1C(=O)Nc1ccc(C(N)=O)nc1
II = COc1cc(OC(F)(F)F)ccc1Oc1ccc(C(F)(F)F)c(F)c1C(=O)Nc1cc(C(N)=O)ncc1C
III = COc1cc(F)ccc1Oc1cc(C(F)(F)F)cc(C(F)(F)F)c1C(=O)Nc1ccc(C(N)=O)nc1
## Task Please list these molecules in decreasing order of IC50. Answer by naming the labels in the order asked.
## Result III, I, II
(III: 1700 nM, I: 150 nM, II: 5 nM)
